This collection of values is drawn from the supplement of paper PMC5998384.

Tested on: HeLa Kyoto
EXPERIMENT: solubility change mitosis vs G1/S (difference of NP-40 vs SDS log2 ratios) (log2 ratio difference); higher = more soluble in mitosis
MEASUREMENT_KIND: solubility change mitosis (log2)
Answers are plain numbers.

PRIMARY_SEQUENCE	solubility change mitosis (log2)
MAADISESSGADCKGDPRNSAKLDADYPLRVLYCGVCSLPTEYCEYMPDVAKCRQWLEKNFPNEFAKLTVENSPKQEAGISEGQGTAGEEEEKKKQKRGGRGQIKQKKKTVPQKVTIAKIPRAKKKYVTRVCGLATFEIDLKEAQRFFAQKFSCGASVTGEDEIIIQGDFTDDIIDVIQEKWPEVDDDSIEDLGEVKK [DENR]	0.142

Task: # return recorded solubility change mitosis (log2) for entry MDKNELVQKAKLAEQAERYDDMAACMKSVTEQGAELSNEERNLLSVAYKNVVGARRSSWRVVSSIEQKTEGAEKKQQMAREYREKIETELRDICNDVLSLLEKFLIPNASQAESKVFYLKMKGDYYRYLAEVAAGDDKKGIVDQSQQAYQEAFEISKKEMQPTHPIRLGLALNFSVFYYEILNSPEKACSLAKTAFDEAIAELDTLSEESYKDSTLIMQLLRDNLTLWTSDTQGDEAEAGEGGEN [YWHAZ]
Output: 0.346

---

Tested on: HeLa Kyoto
EXPERIMENT: thermal stability score vs G1/S (z-score of summed log2 fold changes over temperatures); higher = more thermally stable than in G1/S
CONDITIONS_USED: cell cycle stage: early G1 (4.5 h after nocodazole release)
MEASUREMENT_KIND: thermal stability score

PRIMARY_SEQUENCE	thermal stability score
MESALAVPRLPPHDPGTPVLSVVDMHTGGEPLRIVLAGCPEVSGPTLLAKRRYMRQHLDHVRRRLMFEPRGHRDMYGAVLVPSELPDAHLGVLFLHNEGYSSMCGHAVLALGRFALDFGLVPAPPAGTREARVNIHCPCGLVTAFVACEDGRSHGPVRFHSVPAFVLATDLMVDVPGHGKVMVDIAYGGAFYAFVTAEKLGLDICSAKTRDLVDAASAVTEAVKAQFKINHPDSEDLAFLYGTILTDGKDAYTKEPTTNICVFADEQVDRSPTGSGVTARIALQYHKGLLELNQMRAFKSSATGSVFTGKAVREAKCGDFKAVIVEVSGQAHYTGTASFIIEDDDPLRDGFLLK [L3HYPDH]	0.886
MTLEAIRYSRGSLQILDQLLLPKQSRYEAVGSVHQAWEAIRAMKVRGAPAIALVGCLSLAVELQAGAGGPGLAALVAFVRDKLSFLVTARPTAVNMARAARDLADVAAREAEREGATEEAVRERVICCTEDMLEKDLRDNRSIGDLGARHLLERVAPSGGKVTVLTHCNTGALATAGYGTALGVIRSLHSLGRLEHAFCTETRPYNQGARLTAFELVYEQIPATLITDSMVAAAMAHRGVSAVVVGADRVVANGDTANKVGTYQLAIVAKHHGIPFYVAAPSSSCDLRLETGKEIIIEERPGQELTDVNGVRIAAPGIGVWNPAFDVTPHDLITGGIITELGVFAPEELRTALTTTISSRDGTLDGPQM [MRI1]	-0.841
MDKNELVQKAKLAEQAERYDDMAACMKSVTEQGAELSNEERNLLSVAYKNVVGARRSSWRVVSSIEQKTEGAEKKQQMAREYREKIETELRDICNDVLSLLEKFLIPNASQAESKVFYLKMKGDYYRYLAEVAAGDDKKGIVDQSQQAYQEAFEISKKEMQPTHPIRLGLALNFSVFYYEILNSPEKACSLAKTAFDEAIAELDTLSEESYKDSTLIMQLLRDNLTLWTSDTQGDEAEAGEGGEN [YWHAZ]	-3.76

Hi! Can you tell me thermal stability score for each of these sequences?
1. MSLEQEEETQPGRLLGRRDAVPAFIEPNVRFWITERQSFIRRFLQWTELLDPTNVFISVESIENSRQLLCTNEDVSSPASADQRIQEAWKRSLATVHPDSSNLIPKLFRPAAFLPFMAPTVFLSMTPLKGIKSVILPQVFLCAYMAAFNSINGNRSYTCKPLERSLLMAGAVASSTFLGVIPQFVQMKYGLTGPWIKRLLPVIFLVQASGMNVYMSRSLESIKGIAVMDKEGNVLGHSRIAGTKAVRETLASRIVLFGTSALIPEVFTYFFKRTQYFRKNPGSLWILKLSCTVLAMGLMVPFSFSIFPQIGQIQYCSLEEKIQSPTEETEIFYHRGV [SFXN4]
2. MLRSCAARLRTLGALCLPPVGRRLPGSEPRPELRSFSSEEVILKDCSVPNPSWNKDLRLLFDQFMKKCEDGSWKRLPSYKRTPTEWIQDFKTHFLDPKLMKEEQMSQAQLFTRSFDDGLGFEYVMFYNDIEKRMVCLFQGGPYLEGPPGFIHGGAIATMIDATVGMCAMMAGGIVMTANLNINYKRPIPLCSVVMINSQLDKVEGRKFFVSCNVQSVDEKTLYSEATSLFIKLNPAKSLT [THEM4]

Output:
1: 0.0593; 2: 0.216
